Experiment Notes: Quantitative High-Throughput drug screen in 47 multiple myeloma cell lines against the NCATS MIPE library collection: KMM1_JCRB cell viability assay (AID 1918960); also: nearly all actives have a fitted effect of over 30% in size
Condition Notes: KMM1 myeloma viability, CellTiter-Glo ATP luminescence, 48 h; series mostly up to 45.8 µM
Results filed as inconclusive are left out. Activity calls are given as the source filed them. Calls follow the shape of the dose curve; as a rule, active = well fitted cell-killing curve with a large enough effect; inconclusive = small, poorly fitted or top-dose-only effect, or effect the other way; inactive = no such curve, though single readings can be large or run the other way.
Outcomes you can answer with include only these: TRUE for active, FALSE for inactive

Ask | Assay outcome for CC(=O)O[C@@]12CO[C@H]1C[C@H](O)[C@@]1(C)C(=O)[C@H](O)C3=C(C)[C@@H](O)C[C@@](O)([C@@H](OC(=O)c4ccccc4)[C@@H]21)C3(C)C : what was it?
Reply | TRUE

Ask | How was C[C@@H]1CC[C@@]2(OC1)O[C@H]1C[C@H]3[C@@H]4CC=C5C[C@@H](O[C@@H]6O[C@H](CO)[C@@H](O[C@@H]7O[C@@H](C)[C@H](O)[C@@H](O)[C@@H]7O)[C@H](O)[C@@H]6O[C@@H]6O[C@@H](C)[C@H](O)[C@@H](O)[C@@H]6O)CC[C@]5(C)[C@@H]4CC[C@]3(C)[C@@H]1[C@H]2C classified in this test?
Reply | TRUE

Ask | Hey, what did the test say about O=C(N[C@H]1CN2CCC1CC2)c1ccc(Cl)cc1 ?
Reply | FALSE

Others:
Ask | Could you kindly confirm the outcome this assay logged for COc1ccc(C(=O)c2c(C)n(CCN3CCOCC3)c3cc(I)ccc23)cc1 ?
Reply | TRUE

Ask | Please indicate how the test categorized O=C(O)CNC(=O)c1c(O)c2ccccc2n(Cc2ccccc2)c1=O .
Reply | FALSE

Ask | I'd appreciate the recorded outcome for COc1ccc(N(C(=O)Oc2c(C)cccc2C)c2ccnc(Nc3ccc(N4CCN(C)CC4)cc3)n2)c(OC)c1 from this test.
Reply | TRUE

Ask | Outcome logged for O=[N+]([O-])c1ncc[nH]1 in this assay:
Reply | FALSE

Ask | Which result was noted for this compound in the test: CC(C)(C)[C@]1(O)C[C@@H]2OC(=O)C[C@@]23C(=O)O[C@@H]2OC(=O)[C@H](O)C213 (stereo partly specified)
Reply | FALSE

Ask | Can you look up the reported call for CN1CCN(c2ccc([N+](=O)[O-])c3no[n+]([O-])c23)CC1 for me?
Reply | TRUE

Ask | Hi, do you know how C[C@@H]1CC[C@H]2[C@@H](C)C(=O)O[C@@H]3O[C@@]4(C)CC[C@H]1[C@]32OO4 came out in this test?
Reply | FALSE

Ask | What outcome does the record of this test show for COc1ccc2c(c1)[C@]13CCCCC1C(C2)N(C)CC3 (stereo partly specified) ?
Reply | FALSE

Ask | Outcome logged for CN1[C@H]2CC(O)C[C@H]1[C@H]1O[C@H]12 (stereo partly specified) in this assay:
Reply | FALSE

Ask | Field: outcome | Entry: CN(C)[C@@H]1C(=O)C(C(N)=O)=C(O)[C@@]2(O)C(=O)C3=C(O)c4c(O)cccc4[C@@](C)(O)[C@H]3[C@H](O)[C@@H]12
Reply | FALSE

---

System: DIV17
Experiment Notes: qHTS profiling for inhibitors of Plasmodium falciparum proliferation (AID 504749); also: nearly all actives have a fitted effect of over 60% in size
Condition Notes: P. falciparum in erythrocytes, SYBR Green DNA, 72 h; series mostly up to 28.7 µM
Results filed as inconclusive are left out. The source made the active and inactive calls. Calls come from the whole dose curve; as a rule, active = well fitted inhibition curve with a large enough effect; inconclusive = small, poorly fitted or top-dose-only effect; inactive = flat fitted curve, though single readings scatter.
Can you answer with just one of these options? active, inactive

Ask | What was the test verdict on CC(=O)OCC1=C(C(=O)O)N2C(=O)[C@@H](N)[C@@H]2SC1 ?
Reply | inactive

Ask | Recorded call for CCCCc1ccc(C(=O)O)nc1 ?
Reply | inactive

Ask | // return assay outcome for CC[N+]1(CCOC(=O)C(O)(c2ccccc2)c2ccccc2)CCCCC1
Reply | inactive

Ask | Hello, I am checking results. What call was entered for C1CCC(NC2CCCCC2)CC1 ?
Reply | inactive

Ask | Recorded test call requested for C=CCN1CC[C@]23CCCCC2[C@H]1Cc1ccc(O)cc13 (some centres undefined)
Reply | inactive

Continuing:
Ask | Call for entry NC(=O)CN1CC(O)CC1=O (centres undefined) :
Reply | inactive

Ask | Short answer needed: outcome of this test for O=[N+]([O-])c1ccc([As](=O)(O)O)cc1 ?
Reply | active

Ask | Dear all, I need the recorded test outcome for C#CC1(O)CCC2C3CCC4=CC(=O)CCC4(C)C3CCC21C (centres undefined) , thank you.
Reply | inactive

Ask | Fill in: this test's call for CC(=O)[O][Hg][c]1ccccc1 is ___
Reply | active

FYI, the data here is from PubChem BioAssay (NCATS).
